Where do these numbers come from? They come from patent US20110105544A1.

- measurement_target: human recombinant HDAC1 (Homo sapiens, UniProt Q13547)
- Sequence (Q13547 whole entry): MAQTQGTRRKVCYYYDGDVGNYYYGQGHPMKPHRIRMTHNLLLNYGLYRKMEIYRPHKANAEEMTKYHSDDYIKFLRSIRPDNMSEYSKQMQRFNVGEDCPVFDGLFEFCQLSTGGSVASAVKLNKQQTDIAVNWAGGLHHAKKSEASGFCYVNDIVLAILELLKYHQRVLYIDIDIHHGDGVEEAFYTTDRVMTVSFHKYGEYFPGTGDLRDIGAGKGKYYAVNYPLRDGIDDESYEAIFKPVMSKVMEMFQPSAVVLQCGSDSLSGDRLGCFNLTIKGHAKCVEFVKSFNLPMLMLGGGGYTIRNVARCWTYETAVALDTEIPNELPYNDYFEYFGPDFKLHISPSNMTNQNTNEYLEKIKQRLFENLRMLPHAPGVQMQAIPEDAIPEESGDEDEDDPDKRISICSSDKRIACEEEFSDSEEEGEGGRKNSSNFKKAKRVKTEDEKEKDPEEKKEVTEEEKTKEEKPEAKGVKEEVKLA
- assay_overview: HDAC inhibition assay (Fluor de Lys), HDAC1
- conditions_used: inhibitor-protein incubation 0 hours, reaction 3 hours, 25° C.
pIC50: −log10 of the molar value.
experimental_endpoint: pIC50

• CNS(=O)(=O)c1cccc(CCCC(CCc2ccccc2)C(=O)O)c1 (centres unmarked) = 3.00 to 4.00

Now examine the next entry.
# input Please report pIC50 with human recombinant HDAC1 (Homo sapiens, UniProt Q13547) for item O=C(O)C(CCCc1ccccc1)CCc1ccccc1 (centres unmarked) .
# output 3.00 to 4.00

* * *

- measurement_target: human recombinant HDAC 8 (Homo sapiens)
- Construct: purchased BPS Bioscience 50008
- Sequence (Q9BY41 whole entry): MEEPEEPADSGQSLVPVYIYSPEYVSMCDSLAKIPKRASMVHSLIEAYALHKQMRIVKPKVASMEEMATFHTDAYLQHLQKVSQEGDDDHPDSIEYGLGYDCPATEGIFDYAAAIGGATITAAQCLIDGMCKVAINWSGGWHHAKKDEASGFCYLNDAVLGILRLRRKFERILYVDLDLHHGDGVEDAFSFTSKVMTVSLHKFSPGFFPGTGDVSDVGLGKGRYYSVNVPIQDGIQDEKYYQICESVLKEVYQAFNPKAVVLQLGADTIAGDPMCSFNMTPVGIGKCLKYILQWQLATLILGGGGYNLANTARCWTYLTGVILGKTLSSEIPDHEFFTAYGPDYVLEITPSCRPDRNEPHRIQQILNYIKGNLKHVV
- assay_overview: HDAC inhibition assay (Fluor de Lys), HDAC8
- Format: biochemical
- conditions_used: inhibitor-protein incubation 0 hours, reaction 3 hours, 37° C.
pIC50: −log10 of the molar value. Where a name gives a salt, the structure may show the parent alone.
experimental_endpoint: pIC50

• CCCC(CCCc1ccccc1)C(=O)O (centres unmarked) = 4.00 to 5.00

# input Tell me its pIC50 given Cc1ccc(NS(=O)(=O)c2cccc(CCCC(CCc3ccccc3)C(=O)O)c2)cc1 (centres unmarked) as the entry.
# output 4.00 to 5.00

# input Tell me its pIC50 given O=C(O)C(CCCc1ccccc1)OCc1ccccc1 (centres unmarked) as the entry.
# output 4.00 to 5.00

# input Tell me its pIC50 given O=C(O)C(CCCc1ccccc1)CCc1ccc(OCc2ccccc2)cc1 (centres unmarked) as the entry.
# output ≥ 5.00

# input Tell me its pIC50 given CN(C)c1ccc(C(=O)Nc2cccc(CCCC(CCc3ccccc3)C(=O)O)c2)cc1 (centres unmarked) [Example 24, hydrochloride] as the entry.
# output ≥ 5.00

# input Tell me its pIC50 given O=C(O)C(CCCc1ccccc1)CCc1ccc(-c2cccnc2)cc1 (centres unmarked) as the entry.
# output ≥ 5.00

# input Tell me its pIC50 given COc1ccc(CCC(CCCc2ccccc2)C(=O)O)cc1 (centres unmarked) as the entry.
# output 4.00 to 5.00

# input Tell me its pIC50 given COc1cccc(CCC(CCCc2ccccc2)C(=O)O)c1 (centres unmarked) as the entry.
# output 4.00 to 5.00
